- assay: Aqueous thermodynamic solubility, miniaturized shake-flask method with HPLC
- Format: physicochemical
- assayConditions: aqueous buffer pH 7.4, shake flask
We begin with a simple list: items and their reported Log S0, exp.
Lab note: record just the number, no unit beside it.

Example results:
> print(dat)
                                compound  numericreadout
1  c1coc(Sc2ncnc3sccc23)n1 [Compound 8e]           −2.88
2  c1csc(Sc2ncnc3sccc23)n1 [Compound 8d]           −4.44

In: Suppose we examine the compound c1cnc2[nH]c(Sc3ncnc4sccc34)nc2c1 [Compound 8k] ; what Log S0, exp value has been reported?
Out: −4.11

In: Suppose we examine the compound c1ccc2[nH]c(Sc3ncnc4sccc34)nc2c1 [Compound 8g] ; what Log S0, exp value has been reported?
Out: −6.37

In: Suppose we examine the compound Nc1nnc(Sc2ncnc3sccc23)s1 [Compound 8f] ; what Log S0, exp value has been reported?
Out: −5.36
